tested on: NCI-H460 lung; test: NCI tumour cell line growth inhibition, 48 h
Quick list: TGI per entry.
Property Name: TGI

>>> measured("CC1CCC(C(C)C)C(OC(=O)NCn2cc(-c3ccccc3)nn2)C1 (stereo not drawn)")
"> 100 µM"
>>> measured("NC(=O)C(C(N)=O)=C(O)C(=O)/C=C(\\O)c1ccccc1")
"> 100 µM"
>>> measured("COc1ccc(S(=O)(=O)c2nnc(S(=O)(=O)Cc3ccccc3)s2)cc1")
"38.1 µM"
>>> measured("COc1ccc(CC2NCCc3c2[nH]c2ccccc32)cc1 (stereo not drawn)")
"> 100 µM"
>>> measured("CN1C(=O)N(C)C2C1NN=c1s/c(=C\\c3ccc(Cl)cc3Cl)c(=O)n12 (stereo not drawn)")
"> 94.3 µM"
>>> measured("O=Cc1[nH]c(=O)[nH]c(=O)c1C(=O)O")
"> 100 µM"
>>> measured("Cn1c(=O)n(C2(C)C[Se]C2)c2ccccc21")
"> 100 µM"
>>> measured("Cc1[nH]c2ccccc2c1C(=O)/C=C/c1ccccc1O")
"> 100 µM"

* * *

test system: HOP-62 NSCLC; assay: NCI tumour cell line growth inhibition, 48 h; in the data active = GI50 below about 0.43 µM; inactive = the rest
Outcomes: active, inactive

>>> class_name("CCSc1ncnc2c1ncn2C1OC(CO)C(O)C1O (stereo unspecified)")
"inactive"
>>> class_name("O=C1OCC2=C1C(c1cccc(Br)c1)c1cc3c(cc1N2CCO)CCC3 (stereo unspecified)")
"active"
>>> class_name("Nc1nc(/C=C\\c2ccc([N+](=O)[O-])s2)nc(N2CCCC2)n1")
"inactive"
>>> class_name("CCOC(=O)C(Cc1ccc(CCCC(=O)NCCC(=O)Nc2ccc3nc(C)sc3c2)cc1)C(=O)OCC")
"inactive"
>>> class_name("O=C(CSc1nc2ccccc2nc1-c1ccccc1)Nc1ccc(F)cc1")
"inactive"
>>> class_name("COc1ccc(C(=O)/C=C/c2cc(-c3cc(OC)c(OC)c(OC)c3)n[nH]2)cc1OC")
"inactive"
>>> class_name("[Cl][Hg][c]1cc[c]([Hg][Cl])o1")
"inactive"
>>> class_name("O=C(c1ccccc1)c1cc2ccccc2o1")
"inactive"
>>> class_name("Cc1ccc(NC(=O)CC2CC2)cc1-c1ccc(C(=O)NCC2CC2)cc1")
"inactive"
>>> class_name("COc1cc(-n2cc(-c3ccc(F)cc3)[nH]c2=O)cc(OC)c1OC")
"inactive"
>>> class_name("COc1cc(Cn2c(-c3ccccc3)c(Cl)c3c2-c2oncc2CC3)cc(OC)c1")
"inactive"
>>> class_name("Cn1cc(-c2csc(-c3c[nH]c4ccc(F)cc34)n2)c2cnccc21")
"inactive"
>>> class_name("COc1cc2c3c(n(C)c(=O)c2cc1OC)-c1cc2c(cc1/C3=C\\CN)OCO2")
"active"
>>> class_name("CS(=O)(=O)CCNCc1nc(-c2ccc3ncnc(Nc4ccc(OCc5cccc(C(F)(F)F)c5)cc4)c3c2)cs1")
"inactive"
>>> class_name("C=CCCCCOc1ccccc1-c1cnc(OCCCCC=C)n1C")
"inactive"
>>> class_name("O=C(N[C@@H](c1ccc(Cl)c(Cl)c1)C1CNC1)c1ccc2cnccc2c1")
"active"

* * *

Quick list: TGI per entry.
system: 786-0 renal; assay: NCI tumour cell line growth inhibition, 48 h
Property Name: TGI

>>> measured("COC(=O)C1=C(O)C(C(=O)OC)[C@]2(O)[C@H](C(=O)OC)[C@H]1C[C@@H](c1ccc(C(F)(F)F)cc1)[C@H]2C(=O)OC (some centres undefined)")
"23.4 µM"
>>> measured("CC(=O)Oc1ccc2c(C)cc(=O)oc2c1OC(C)=O")
"> 100 µM"
>>> measured("COC(=O)C(Cc1nc2ccc(Cl)cc2[nH]c1=O)/C(=N\\N)C(=O)Nc1cc(C)c(Cl)cc1S(=O)(=O)O (centres undefined)")
"> 100 µM"
>>> measured("N#Cc1c(N)nc2n[nH]c(N)c2c1-c1ccc(Cl)cc1")
"> 60.8 µM"
>>> measured("O=C(Nc1nc(C23CC4CC(CC(C4)C2)C3)cs1)c1cc2ccc(O)cc2oc1=O")
"23.8 µM"
>>> measured("O=C(Nc1nc(=S)c2c(ncn2CCOC(=O)c2ccccc2)[nH]1)c1ccccc1")
"> 100 µM"
>>> measured("CC1c2c(Cl)nc3ccccc3c2Oc2c1c(Cl)nc1ccccc21")
"> 100 µM"
>>> measured("O=C(/C=C/c1cc2ccccc2o1)N1CCN(c2ccccn2)CC1")
"> 100 µM"
>>> measured("COc1cc2c(cc1OCCCNC(=O)c1cccc3c(=O)c4ccccc4[nH]c13)N=C[C@@H]1CCCN1C2=O")
"24 µM"

* * *

Quick list: TGI per entry.
tested on: KM20L2 colon; assay: NCI tumour cell line growth inhibition, 48 h
Property Name: TGI

>>> measured("CC(=O)OC12C=CC(=O)N1c1ccccc1C(=O)O2 (stereo not drawn)")
"> 100 µM"
>>> measured("COc1cccc(C2=NC(C(C)C)CO2)c1 (stereo not drawn)")
"> 100 µM"
>>> measured("CN(C)CC1CCCC/C1=N/OC(=O)c1ccc(Cl)cc1 (stereo not drawn)")
"> 100 µM"

* * *

Quick list: TGI per entry.
test system: SK-MEL-2 melanoma; assay: NCI tumour cell line growth inhibition, 48 h
Property Name: TGI

>>> measured("C[C@@H]1CC[C@@H]2[C@@H]1[C@H](OC(=O)/C=C/c1ccccc1)[C@]1(C3CCCCC3)C[C@@H](OC(=O)CO)[C@@]2(C)O1")
"16.1 µM"
>>> measured("CC1(C)N=C(N)N=C(N)N1c1ccc(CCc2ccccc2)cc1")
"> 100 µM"
>>> measured("CC(C)=CC[C@]12CCN[C@H]1N(S(=O)(=O)c1ccccc1)c1ccccc12")
"31.6 µM"
>>> measured("CO/N=C(\\COc1ccc2c(c1)oc(=O)c1cc(OC)ccc12)c1ccc(OC)cc1")
"> 100 µM"
>>> measured("Cc1ccc(NC(=O)CCc2cc(C(C)(C)C)nc(=S)[nH]2)cc1C")
"> 100 µM"
>>> measured("CCC(C)COC(=O)c1ccc(N=Cc2ccc(C=Nc3ccc(C(=O)OCC(C)CC)cc3)cc2)cc1 (centres undefined)")
"> 100 µM"
>>> measured("COc1cc(NS(C)(=O)=O)ccc1Nc1c2ccccc2nc2c1[nH]c1ccc(NC3OC(CO)C(O)C(O)C3O)cc12 (centres undefined)")
"1.36 µM"
>>> measured("CN=C(N=Nc1c(O)[nH]c2ccccc12)SCC(=O)c1ccc(Br)cc1")
"> 100 µM"
>>> measured("COC(CNC(=O)C(C)NC(=O)/C=C/c1ccccc1)OC (centres undefined)")
"> 100 µM"

* * *

test system: SF-295 CNS; experiment: NCI tumour cell line growth inhibition, 48 h
Property Name: TGI

>>> measured("C[C@@H]1CC[C@@H]2[C@@H]1[C@H](OC(=O)/C=C/c1ccccc1)[C@]1(C3CCCCC3)C[C@@H](OC(=O)CO)[C@@]2(C)O1")
"13.1 µM"
>>> measured("CN(CC(=O)O)c1ncc2c(n1)CCCC2")
"> 100 µM"
>>> measured("Cn1c(=O)c2c(nc(Cc3ccccc3)n2CC(=O)O)n(C)c1=O")
"> 100 µM"
>>> measured("Oc1[nH]c2ccccc2c1N=NC(=S)Nc1cccc(Cl)c1")
"29.2 µM"
>>> measured("CCN1CCC(O)(c2ccc(OC)cc2)C(C(=O)c2ccc(OC)cc2)C1 (stereo unspecified)")
"> 100 µM"
>>> measured("Cn1c(=O)n(C2(C)C[Se]C2)c2ccccc21")
"> 100 µM"
>>> measured("CC(O)C1(CNc2cc(Cl)nc(N)n2)CCC1 (stereo unspecified)")
"> 100 µM"
>>> measured("O=C1C=CC(=O)c2cc3cc(CBr)ccc3cc21")
"> 73.9 µM"
>>> measured("CCCN1C(=O)N(CCC)C2C1NC(=S)N2/N=C/C=C/c1ccccc1OC (stereo unspecified)")
"29.4 µM"
>>> measured("COc1c(OC[C@H](O)CN2CCOCC2)ccc2c3n(c(=NC(=O)c4cccnc4C)nc12)CCN3")
"17.2 µM"
>>> measured("CCOC(=O)c1nnc2c(C(=O)OCC)c3ccccc3n2c1N")
"> 100 µM"
>>> measured("OCC1OC(c2nc(C3=NCCCN3)cs2)C(O)C1O (stereo unspecified)")
"> 10 µM"
>>> measured("C#C[C@]1(O)CCC2C3CCc4cc(O)ccc4C3CC[C@@]21C (stereo partly specified)")
"12.2 µM"
>>> measured("COc1cccc(C2=NC(C(C)C)CO2)c1 (stereo unspecified)")
"> 100 µM"
>>> measured("O=C(CCc1n[nH]c(=S)o1)Nc1ccccc1C(F)(F)F")
"> 100 µM"
>>> measured("CCOc1ccccc1NC(=O)C(=O)CC(=O)c1sc(Nc2nnc(-c3ccc(Cl)c(Cl)c3)o2)nc1C")
"> 100 µM"
>>> measured("Cn1ccc(C(=O)NCCN(CCNC(=O)c2ccn(C)c(=O)c2O)CCNC(=O)c2cccc(=O)n2O)c(O)c1=O")
"> 100 µM"
>>> measured("S=c1sc2c(Cl)nc(Cl)nc2n1-c1ccccc1")
"> 100 µM"
>>> measured("COc1cc(C2c3cc4c(cc3OC3(OC)COC(=O)C23)OCO4)cc(OC)c1OC(C)=O (stereo unspecified)")
"5.38 µM"
>>> measured("NCCNc1c2c(c(NCCN)c3[nH]ccc13)C(=O)c1ccccc1C2=O")
"0.352 µM"
>>> measured("CC(OC(C)(C)C)[C@H](NC(=O)OCC(Cl)(Cl)Cl)C(=O)O (stereo partly specified)")
"> 100 µM"
>>> measured("N#CCCN(C(=O)Nc1ccccc1)[C@H]1CCCC[C@@H]1N(C(=O)Nc1ccccc1)c1ccccc1")
"> 100 µM"
>>> measured("O=C1Nc2ccccc2/C1=N\\[O-].O=C1Nc2ccccc2/C1=N\\[O-].[Cu+2]")
"> 100 µM"
>>> measured("O=C(O)CCC(NC(=O)c1ccc(Nc2nc3cc(C(F)(F)F)ccc3nc2-c2ccccc2)cc1)C(=O)O (stereo unspecified)")
"> 100 µM"
>>> measured("CCSc1ncnc2c1ncn2C1OC(CO)C(O)C1O (stereo unspecified)")
"> 43.1 µM"
>>> measured("CO/N=C(\\COc1ccc2c(c1)oc(=O)c1cc(OC)ccc12)c1ccc(OC)cc1")
"> 100 µM"
>>> measured("COc1ccc(Nc2nnc(-c3cc(O)ccc3O)s2)cc1")
"> 50 µM"
>>> measured("Cc1ccc(/C=C/C(=O)c2sc(-c3nc(C)c(C(=O)/C=C/c4ccc(C)cc4)s3)nc2C)cc1")
"> 100 µM"
>>> measured("COc1ccc2c(c1)C(=O)c1c-2c(N2CCN(C(=O)CNCCNCCO)CC2)nc2ccccc12")
"32.3 µM"
>>> measured("CCOc1ccc(NC(=O)CC#N)cc1")
"> 100 µM"
>>> measured("[Cl][Hg][c]1cc[c]([Hg][Cl])o1")
"58.6 µM"
>>> measured("CC(=O)c1sc(Nc2nnc(-c3ccc(-c4nnc(Nc5nc(C)c(C(C)=O)s5)o4)cc3)o2)nc1C")
"> 100 µM"
>>> measured("CC(C)=CC[C@]12CCN[C@H]1N(S(=O)(=O)c1ccccc1)c1ccccc12")
"34.5 µM"
>>> measured("COc1ccc(/C=C2/N=C(c3ccccc3)N(c3c(C)n(C)n(-c4ccccc4)c3=O)C2=O)cc1OC")
"> 100 µM"
>>> measured("COc1ccc(C(OCC2OC(n3cc(C)c(=O)[nH]c3=O)CC2n2cc(Cn3cc(Cl)c(=O)[nH]c3=O)nn2)(c2ccccc2)c2ccccc2)cc1 (stereo unspecified)")
"> 100 µM"
>>> measured("CC(C)(C)OC(=O)[C@H]1CCC(=S)N1Cc1ccccc1")
"> 100 µM"

All figures here come from PubChem BioAssay (NCI).
